system: Hepatotoxicity; experiment: FDA HLAED, gamma-glutamyl transferase (GGT) increase; conditions: human
observable: GGT Increase - Activity Score

Known GGT Increase - Activity Score results, listed for orientation:
# compound, target, observable, measurement
records = [
    ("CN(N=O)C(=O)N[C@@H](C=O)[C@@H](O)[C@H](O)[C@H](O)CO [STREPTOZOCIN]", "Hepatotoxicity", "GGT Increase - Activity Score", "Inactive"),
    ("C[C@H]1C[C@H]2[C@@H]3C[C@H](F)C4=CC(=O)C=C[C@]4(C)[C@@]3(F)[C@@H](O)C[C@]2(C)[C@@]1(O)C(=O)CCl [HALOBETASOL]", "Hepatotoxicity", "GGT Increase - Activity Score", "Inactive"),
    ("CC(C)(C)NCC(O)c1ccc(O)c(CO)c1 (stereo not drawn) [ALBUTEROL]", "Hepatotoxicity", "GGT Increase - Activity Score", "Inactive"),
    ("NCC1(CC(=O)O)CCCCC1 [GABAPENTIN]", "Hepatotoxicity", "GGT Increase - Activity Score", "Inactive"),
    ("CC(C)/N=c1\\cc2n(-c3ccc(Cl)cc3)c3ccccc3nc-2cc1Nc1ccc(Cl)cc1 [CLOFAZIMINE]", "Hepatotoxicity", "GGT Increase - Activity Score", "Active"),
    ("Clc1ccc2c(c1)C(c1ccccc1)=NCc1nncn1-2 [ESTAZOLAM]", "Hepatotoxicity", "GGT Increase - Activity Score", "Inactive"),
]

Each of the following entries comes with a recorded value; kindly state GGT Increase - Activity Score for each.
1. Cc1cn([C@H]2C=C[C@@H](CO)O2)c(=O)[nH]c1=O [STAVUDINE]
2. Cc1nccn1CC1CCc2c(c3ccccc3n2C)C1=O (stereo not drawn) [ONDANSETRON]
3. C[C@H](CCC(=O)O)[C@H]1CC[C@H]2[C@@H]3[C@@H](O)C[C@@H]4C[C@H](O)CC[C@]4(C)[C@H]3CC[C@]12C [URSODIOL]

**A:**
["Marginally Active", "Inactive", "Inactive"]
